Hello, the source for this data is the EternaBench riboswitch data, in case you need it.

Reported apparent Kd is given for each of the following sequences.
Test system: MS2 coat protein
protocol summary: apparent Kd, MS2 coat protein; higher = weaker binding; RNA-MaP array
assay conditions: ligand present: flavin mononucleotide; designed as: OFF switch for flavin mononucleotide
Enter your answer as a number in nM; do not include the unit.

In the examples that follow, each entry is paired with its recorded apparent Kd.
seq=AAAUUACACGAGAAGGGCAGUGAAUAUCUGUCUGCAGGAUAUCGCUACAUGAGGAUCACCCAUGUUUUCAGUAGUACUAGCGAA result_type="apparent Kd" test_result=9.06
seq=CAAAUGAGAGGAUAUACAAUUAGAUUUCAAAGUCACAUCAGACAUGAGGAUCACCCAUGUAGAAGGCUCGGAUA result_type="apparent Kd" test_result=193

The record that follows has no apparent Kd shown yet.
In: Look up apparent Kd: AGUUGAGGAGGAUAUACAUGAGGAUCACCCAUGUGACUGUGUCUGUUGCGCUGGAUCGGUAGAAGGCCUUAGUA
Out: 16.4

###

System: MS2 coat protein
protocol summary: apparent Kd, MS2 coat protein; higher = weaker binding; RNA-MaP array
assay conditions: designed as: ON switch for flavin mononucleotide; no ligand
Examples of sequences with documented apparent Kd follow.
Value expressed in nM; do not type the unit.

// known answers, use as guide
seq=ACUAUUCAUUAUGGCACAUGAGGAUCACCCAUGUAGUGCGAACAGGAUAUACAAAAGAAUGUCAAGUAGAAGGGUUCCAGGUUC result_type="apparent Kd" result_units=nM test_result=28
seq=GUACAUUUUGCAGGAUAUGUUCAAUACAUGAGGAUCACCCAUGUUCCCUGCUCGGGUCGAGCAUAACAGAAGGGCACUAUAUGU result_type="apparent Kd" result_units=nM test_result=28.9

Note: attention shifts to another entry.
In: Given the entry UGAUCAGAACAGAAGGAGUAGUCUGCCUUGCUACUAGGAUAUGUUACAUGAGGAUCACCCAUGUGUUUAGGAUUGCCAUAAAGG , report its measured apparent Kd.
Out: 13.1

###

sequences and their reported apparent Kd
System: MS2 coat protein
protocol summary: apparent Kd, MS2 coat protein; higher = weaker binding; RNA-MaP array
assay conditions: designed as: ON switch for flavin mononucleotide; no ligand
Give the value in nM but do not write nM after it.

Worked cases, answers included:
seq=UACUUUGUAUGCAAGGAUAUCCAGGAUUCUACAUGAGGAUCACCCAUGUCAAAUACUAUGCAACGGGAGAAGGUGCAUAACAUCAU assayed_target="MS2 coat protein" result_type="apparent Kd" result_units=nM test_result=16.5
seq=ACAUGGAGGACAGGAUAUCCAUCUGGCCACCACGGAGAAGGGUCCACCCGACAUGAGGAUCACCCAUGUAUCAACGUGAUGAGU assayed_target="MS2 coat protein" result_type="apparent Kd" result_units=nM test_result=23
seq=UAUUAACAUGAGGAUCACCCAUGUUAUAGAGACCUAGGAUAUGCUUGCAUCCUCGCUCGUGCAGAAGGAGGUUUAU assayed_target="MS2 coat protein" result_type="apparent Kd" result_units=nM test_result=7.08
seq=CCACGGAGUUUAGGAUAUGUCGGCUUGGAGUUUACAGAAGGAAAUUGCGCAGCCACAUGAGGAUCACCCAUGUUCGGAAAUACG assayed_target="MS2 coat protein" result_type="apparent Kd" result_units=nM test_result=31
seq=GUGCUACAUGAGGAUCACCCAUGUGUGUAACAACAAGGAUAUGAUGCUUUGCCCGAAAGGUCAGAAGGUGUACGGC assayed_target="MS2 coat protein" result_type="apparent Kd" result_units=nM test_result=12.9
seq=CCUAUCAAACGAGGAUAUGUGCGGACAAGAAACACAGAAGGCGAACCACAUGAGGAUCACCCAUGUACGAAGACAAAGCAAGAA assayed_target="MS2 coat protein" result_type="apparent Kd" result_units=nM test_result=22.7
seq=AUCUGGUUACAAGGAUAUCCAAUGUAAACAAUAGGAGAAGGAGUGAAAAGACCUAGGAAAACAUGAGGAUCACCCAUGUAAUUA assayed_target="MS2 coat protein" result_type="apparent Kd" result_units=nM test_result=111

Please turn your attention to the following entry.
In: Fill blank: measured apparent Kd of the sequence ACGAACAUGAGGAUCACCCAUGUUGUUUCUAAGACUCGGUCAAGAAGGUGUCGUUACGAGUCGAACAAGGAUAUUGAUCCGAAC is ____.
Out: 28.6

###

Test system: MS2 coat protein
protocol summary: apparent Kd, MS2 coat protein; higher = weaker binding; RNA-MaP array; FMN 200 µM where present
assay conditions: designed as: OFF switch for flavin mononucleotide; no ligand
result type: apparent Kd (nM)
The reply should be a number in nM, with the unit left off.

seq=GGUACUCAAAGAGUACCACUACGAACAUGAGGAUCACCCAUGUAGGAUAUGCUACUCAAAGAGUAGCAGAAGGACAUGUGCCUA assayed_target="MS2 coat protein" result_type="apparent Kd" result_units=nM test_result=17.9

In: For the sequence shown here, GAUUUCUAAGGAUAUACUGAUGUUCCUAAGUCUAGCGGCUCACAUGAGGAUCACCCAUGUAGAAGGUGGAGGUU , give the reported apparent Kd.
Out: 27.8

In: Suppose we examine the sequence ACGCAUUGCCUUUGGUAGUGCGUAACAUGAGGAUCACCCAUGUAGGAUAUGGUAGGCUUUGCUUACCAGAAGGACAUUAUAAAC ; what apparent Kd value has been reported?
Out: 29.3

In: Which apparent Kd is reported for this sequence? GGAUCGAGUGUGAGGAUAUACCACUGGAUACAGUGGUAGAAGGCACAUGAGGAUCACCCAUGUCCCUACGAUCC
Out: 32.9

In: Using the record for CUGUGACGGUGCGCAAGUGGACGGAGAAGGGACACAUGAGGAUCACCCAUGUGAGCCUGCUAUUGUCAGGAUAUCCGUUCGUAC , report its apparent Kd.
Out: 8.69

In: Look up apparent Kd for this sequence: CUCUUGUGAGGAUAUCGAAGAAAAGAAAAGAAAGAAAAGAACGAGAAGGCACAUGAGGAUCACCCAUGUAAGAA
Out: 57.2

###

Property: apparent Kd; scope: individual sequences
Test system: MS2 coat protein
protocol summary: apparent Kd, MS2 coat protein; higher = weaker binding; RNA-MaP array
assay conditions: designed as: OFF switch for flavin mononucleotide; no ligand
Numbers only; they are read as nM.

seq=ACUUAGAGAUAGAAGGAUGGAGUCAGGGUCCACAUAGGAUAUAUCUUGCACGAAACAUGAGGAUCACCCAUGUUGGAAUCCUCU result_type="apparent Kd" result_units=nM test_result=30.4
seq=CUCGAGUUUACAGGAUAUUAGGAAAUCGGAUAUUAAGAAGGGUAAAUGUACAUGAGGAUCACCCAUGUUCUCUGCUGCGUCAUA result_type="apparent Kd" result_units=nM test_result=15.4
seq=UAACCGUGAGGAUAUACAUGAGGAUCACCCAUGUGGUUUUGCUGCGCACAUACUUUAUGUAGAAGGCACAACUG result_type="apparent Kd" result_units=nM test_result=50

Now take the following sequence into account.
In: Form field: reported apparent Kd of GAUAGUGAUCCGGGUUACAUGAGGAUCACCCAUGUUACAAAUAGAAGGUCAGAACAAAAUUGAAAGAAGGAUAUAUUUUCAUUG
Out: 44.1

###

System: MS2 coat protein
protocol summary: apparent Kd, MS2 coat protein; higher = weaker binding; RNA-MaP array
assay conditions: ligand present: flavin mononucleotide; designed as: ON switch for flavin mononucleotide
result type: apparent Kd
Please don't drop the unit; write it after the number.

Some sequences with known apparent Kd results, for comparison:
seq=AGAUCACAUGAGGAUCACCCAUGUCAGGAACUAAGGUACGCUAGAAGGCCGGAUAUGCGGGAAGCGGAGGAUAUAGCAAGCAUC result_type="apparent Kd" test_result="19.6 nM"
seq=CCCAGAUGCUAGAAGGCCUACAUGAGGAUCACCCAUGUAUCCGCUAUCCACACACGCAGGCGGCAGGAGGAUAUAGACGAAGGA result_type="apparent Kd" test_result="6.63 nM"
seq=CCAGGACAUGAGGAUCACCCAUGUACGGUCAGCGAAGGAUAUAUUGCGUGGCGAGUGCUGAUAGAAGGUCGUAAAC result_type="apparent Kd" test_result="10.9 nM"
seq=AAGAAGUACCAGAAGGGAGGAGGAAAUCUACAUGAGGAUCACCCAUGUACUUGCGGAUUUAAAUCUCAGGAUAUGGGAUACACA result_type="apparent Kd" test_result="12.9 nM"
seq=GACUUGCAAGAGAAGGCGGCCACCAAUCAUCGGAGUGUAAACUCUACAUGAGGAUCACCCAUGUCCGAGGAUAUCUUCAUCAGU result_type="apparent Kd" test_result="69.8 nM"

In: For the sequence GUGCUACAUGAGGAUCACCCAUGUGUGUAACAACAAGGAUAUGAUGCUUUGCCCGAAAGGUCAGAAGGUGUACGGC , what apparent Kd is on record?
Out: 11.1 nM

In: Any idea what its apparent Kd is? The sequence is AAAACGGGUUAGAAGGGCAAUUUUGAUGACAGUGCAGGAUAUAACUUGUGUCCGAAUAUGGACAUGAGGAUCACCCAUGUUAGU
Out: 185 nM

In: # get_value(readout='apparent Kd', item= AGUGGACUGAGGCAGGAUAUCUAUUCAGGAACAUGAGGAUCACCCAUGUCAUGAAAUGACUCGUGAGAGAAGGGCCGUCAACUUAU )
Out: 29.5 nM

In: # apparent Kd lookup, item GACAUCAUAGGAGGAUAUGUUUUCUAAAGACUGACAGAAGGCCAGAACAGUAAGAACAAAAGACAUGAGGAUCACCCAUGUGUU
Out: 9.36 nM

In: Quick one: apparent Kd for GGGCCACAUAAGAAGGUGAGCCACAGCGGCGUUCAAGGAUAUUAUAGGUAACCCACCAGACAUGAGGAUCACCCAUGUAGUGUC ?
Out: 25.2 nM

In: Can you share its apparent Kd? I mean this sequence: ACGGGAGCAGAAGGAUAUAGGGUAGGUAUUAGACUAGAAGGACUCUUACAUGAGGAUCACCCAUGUAGUUCAGAAUGGGAAAUC
Out: 40.4 nM

In: What value of apparent Kd has been recorded for this entry: CCUAUCAAACGAGGAUAUGUGCGGACAAGAAACACAGAAGGCGAACCACAUGAGGAUCACCCAUGUACGAAGACAAAGCAAGAA
Out: 14.5 nM

In: Endpoint output: apparent Kd of GACACCGGUAUGGAGGAUAUGGGAGACAGUACAUGAGGAUCACCCAUGUCGUUAAGAAGAUAUCACCAGAAGGCCACUCGGUCGAG . Value?
Out: 9.63 nM

In: Return reported apparent Kd; argument: AGCACAAAGUAGAAGGGUAGCACCGAUUUUCAUACAGGAUAUACGAAGGCAGGGUCAACAUGAGGAUCACCCAUGUUACCGCUU
Out: 5.39 nM

In: What apparent Kd value was documented for this sequence, UAAUUCAGGGAGAAGGUCUGAUCGUAACAUGCAGAAGGAUAUCCCAAUAACAUGAGGAUCACCCAUGUUUUGUUAUGCGUCAAC ?
Out: 19.8 nM

In: Requested read-out: apparent Kd. Entry: ACUAUUCAUUAUGGCACAUGAGGAUCACCCAUGUAGUGCGAACAGGAUAUACAAAAGAAUGUCAAGUAGAAGGGUUCCAGGUUC
Out: 19.8 nM

In: // query apparent Kd value for entry UUCACAAGAAUUUACAUGAGGAUCACCCAUGUCCUUGCAAAGGAGGAUAUUGAGUACAAGACCUACAAGAAGGCCAGAGACAAG
Out: 15.5 nM

In: Item UCCAGACAUGAGGAUCACCCAUGUUCAUGCCUCGGAGGAUAUCUAUGGGUGGAGGACUUUAGAGAAGGCCGAUCCG has what recorded apparent Kd?
Out: 458 nM

In: Dear colleague, I am looking for the recorded apparent Kd of the following sequence: UACCAAAUCACAGGAUAUGAGGCGCCAGCUAGGUCAGAAGGGUGACAUGAGGAUCACCCAUGUUCGCAGAAAAUAAUUGCUAAG
Out: 678 nM

In: If you can, please state the reported apparent Kd value of CGUAAUAACUCACAGGAUAUGCGAGAGGAGACAUGAGGAUCACCCAUGUGACCAUGAAUAUUCCUGCAGAAGGGUGAUAAAUCAUU .
Out: 18 nM
